# Subject Of Test: MRGPRX4 (Homo sapiens)
# Sequence (Q96LA9 whole entry): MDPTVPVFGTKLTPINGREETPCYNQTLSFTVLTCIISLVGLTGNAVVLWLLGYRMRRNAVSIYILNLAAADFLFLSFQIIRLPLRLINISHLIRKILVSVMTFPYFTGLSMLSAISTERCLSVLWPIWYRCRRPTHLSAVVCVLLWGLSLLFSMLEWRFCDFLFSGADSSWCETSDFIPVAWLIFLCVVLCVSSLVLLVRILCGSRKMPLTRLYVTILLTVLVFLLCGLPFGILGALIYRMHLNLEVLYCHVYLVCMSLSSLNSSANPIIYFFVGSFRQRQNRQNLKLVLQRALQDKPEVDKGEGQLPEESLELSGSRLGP
# Procedure Details: MRGPRX4 activation, Fluo-8 Ca2+ FLIPR assay in HEK293T cells stably expressing MRGPRX4
# Assay type: cell-based
# Design: key: fluorescence change dF/F0
# Experimental Conditions: E3-9, Conc. (Log[M]) −5.4
Assign MRGPRX4 activation, Average to each entry below.

Field: example entries. Status: answers known.
>  <Chem Smiles>
CC[C@H]1[C@@H](O)[C@@H]2[C@H](CC[C@]3(C)[C@@H]([C@H](C)CCNS(=O)(=O)c4cc(F)ccc4F)CC[C@@H]23)[C@@]2(C)CCCC[C@@H]12

>  <Reported Measurement>
0.020

$$$$
>  <Chem Smiles>
CC[C@H]1[C@@H](O)[C@@H]2[C@H](CC[C@]3(C)[C@@H]([C@H](C)CCNC(=S)NS(=O)(=O)c4ccc(C(C)(C)CF)cc4)CC[C@@H]23)[C@@]2(C)CCC(F)(F)C[C@@H]12

>  <Reported Measurement>
0.015

$$$$

Please state MRGPRX4 activation, Average for every compound in the list that follows.
1. CC[C@H]1[C@@H](O)[C@@H]2[C@H](CC[C@]3(C)[C@@H]([C@H](C)CCC(=O)O)CC[C@@H]23)[C@@]2(C)CCC(F)(F)C[C@@H]12
2. CC[C@H]1[C@@H](O)[C@@H]2[C@H](CC[C@]3(C)[C@@H]([C@H](C)CCN=C=S)CC[C@@H]23)[C@@]2(C)CCCC[C@@H]12

# output
1. 0.023
2. 0.013
